- Assayed System: T1, cyno FcRn/b2M (cyno, UniProt Q8SPV9 24-297; Q8SPW0 21-119, biotinylated)
- T1 construct: bought recombinant biotinylated protein (Immunitrack ITF05 or ACRO FCM-C82W5); also called cFcRn; cFcRn/cb2M
- T1 sequence (Q8SPV9 24-297 limits assumed, chain 1 of 2): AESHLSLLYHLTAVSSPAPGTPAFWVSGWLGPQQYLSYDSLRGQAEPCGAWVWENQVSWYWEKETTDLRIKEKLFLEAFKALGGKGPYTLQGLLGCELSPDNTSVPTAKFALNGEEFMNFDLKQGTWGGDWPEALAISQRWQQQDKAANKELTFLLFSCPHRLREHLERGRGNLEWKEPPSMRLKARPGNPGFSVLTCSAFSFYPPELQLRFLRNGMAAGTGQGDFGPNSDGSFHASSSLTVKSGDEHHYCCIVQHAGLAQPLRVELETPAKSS
- T1 sequence (Q8SPW0 21-119 limits assumed, chain 2 of 2): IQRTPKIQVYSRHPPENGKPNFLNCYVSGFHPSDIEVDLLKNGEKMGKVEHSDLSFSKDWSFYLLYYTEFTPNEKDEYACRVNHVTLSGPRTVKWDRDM
- Assay Text: SPR off-rate; pH 7.4 vs pH 6.0;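 also: surface plasmon resonance with diluted periplasmic extracts flowed over ligand surfaces, 120 s association and 600–3600 s dissociation at 25 °C, running buffer containing 150 mM NaCl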
Measurement Kind: kd ratio pH 7.4/6.0

Binder: T0263018B11 Y98L (VHH, name in Kabat numbering, FLAG3-His6 tagged) VHH: EVQLVESGGGVVQPGGSLRLSCAASGFTFSSYAMYWVRQAPGKGLEWVSAISSGGGSTDYADSVKGRFTISRDNSKNTLYLQMNSLRPEDTALYYCAADTLLTSLTWYSYWGQGTLVTVSS
Measurement Kind: kd ratio pH 7.4/6.0
Result: 36

Binder: T0263018B11 S52G (VHH, name in Kabat numbering, FLAG3-His6 tagged) VHH: EVQLVESGGGVVQPGGSLRLSCAASGFTFSSYAMYWVRQAPGKGLEWVSAIGSGGGSTDYADSVKGRFTISRDNSKNTLYLQMNSLRPEDTALYYCAADTLYTSLTWYSYWGQGTLVTVSS
Measurement Kind: kd ratio pH 7.4/6.0
Result: 27

Binder: T0263018B11 T96S (VHH, name in Kabat numbering, FLAG3-His6 tagged) VHH: EVQLVESGGGVVQPGGSLRLSCAASGFTFSSYAMYWVRQAPGKGLEWVSAISSGGGSTDYADSVKGRFTISRDNSKNTLYLQMNSLRPEDTALYYCAADSLYTSLTWYSYWGQGTLVTVSS
Measurement Kind: kd ratio pH 7.4/6.0
Result: 44

Binder: T0263018B11 Y100dF (VHH, name in Kabat numbering, FLAG3-His6 tagged) VHH: EVQLVESGGGVVQPGGSLRLSCAASGFTFSSYAMYWVRQAPGKGLEWVSAISSGGGSTDYADSVKGRFTISRDNSKNTLYLQMNSLRPEDTALYYCAADTLYTSLTWFSYWGQGTLVTVSS
Measurement Kind: kd ratio pH 7.4/6.0
Result: 34
